EXPERIMENTAL PROTOCOL: Pharmacokinetic evaluation experiment in mice (IV and PO)
Assay type: in vivo
REPORTED CONDITIONS: mouse, plasma; male ICR mice, PO 30 mg/kg vs IV 5 mg/kg
MEASURED ENDPOINT: bioavailability (%)

(a) CNC(=O)c1cnc(OCCO)c(F)c1-c1c(Cl)c(F)cc2c1C[C@](c1ccccc1)([C@@H]1CC3(CC3)CN1)O2 [Compound 10a]
(b) CNC(=O)c1cc2c(c(F)c1-c1c(Cl)c(F)cc3c1C[C@](c1ccccc1)([C@@H]1CCCN1)O3)CCC2 [Compound 31a]
(c) CNC(=O)c1cc2c(c(F)c1-c1c(Cl)c(F)cc3c1C[C@](c1ccccc1)([C@@H]1CCCN1)O3)C1CC1O2 (stereo partly drawn)
Rank entries according to their bioavailability, from the largest number down. Lab note: final answer is the ordered label list. c, b, a
(c: 95.4%, b: 44.6%, a: 17.3%)
